Task for the reader: assign each of the following molecules its reported activation.
- tested.on: Atrial natriuretic peptide receptor 2 (Homo sapiens)
- assay.details: GC-B stimulated cGMP production enhancers – HEK293 GC-B cells, cGMP TR-FRET, EC30 CNP, primary screen (AID 1920062)
- applied.conditions: at 10 µM, hits give high values, 0% at EC30 CNP, 100% saturating CNP
Screen size: about 370,000 compounds; about 400 (0.11%) were called active. The sample as a whole holds a higher share of actives than the screen did.
Give just the number in %; leave the unit off.

Data request: Determine from records and report activation for "CN(CC(=O)Nc1ccccc1Cl)C(=O)COc1cccc2c1OC(C)(C)C2"
Data returned: -1.31

Data request: Supply reported activation belonging to this molecule: "CCN(CC(=O)NCCCN1CCOCC1)S(=O)(=O)c1cc(Cl)ccc1Cl"
Data returned: -0.24

Data request: Determine from records and report activation for CCNC(=O)C1(C)CCN(C(=O)c2ccccc2)C1 (stereo not given)
Data returned: 1.62

Data request: Give recorded activation. "CCCc1nc2ccccc2c(C(=O)OCc2nnc(-c3cc(OC)c(OC)c(OC)c3)o2)c1CC"
Data returned: 27.3

Data request: Please give the documented activation of "Cc1ccc(CSc2ccc(S(=O)(=O)N3CCCCC3)cn2)cc1"
Data returned: -1.29

Data request: Give activation for "CS(=O)(=O)Nc1ccccc1N=C(c1ccccc1)c1ccccc1"
Data returned: 4.92

Data request: For COc1cc(C2C(N3C(=O)c4ccccc4C3=O)C(=O)N2c2ccc(C)c(C)c2)cc(OC)c1OC (stereo not given) , write its activation.
Data returned: 3.45

Data request: In one line, give reported activation of the entry "CCCCNC(=O)c1nc(C2CCN(S(=O)(=O)c3ccc(F)c(F)c3)CC2)oc1-c1cccc(C(F)(F)F)c1" .
Data returned: 1.59

Data request: Identify activation associated with the molecule "COc1cccc(CC(=O)N2CCN(C(=O)C(=O)c3cccc(C(F)(F)F)c3)CC2)c1"
Data returned: 0.51

Data request: Identify the reported activation for the following entry. "N#Cc1ccccc1S(=O)(=O)N1CCN(Cc2c(O)ccc3ccccc23)CC1"
Data returned: 2.67
